Hello, the source for this data is ChEMBL document CHEMBL1201862, in case you need it.

tested on: SNB-19; experiment: NCI tumour cell line growth inhibition, 48 h
Calls of active or inactive are those of the source. No stated cut-off is given here; in the data, active = GI50 up to about 1.1 µM and inactive = higher.
Recorded measurements of GI50, one per entry

# molecule, GI50
records = [
    ("Clc1ccc(C2=NNC(c3cccc(Cl)c3)C2)cc1 (configuration not stated)", "34.4 µM (inactive)"),
    ("CC(CCC(=O)O)C(=O)O (configuration not stated)", "> 100 µM (inactive)"),
    ("CC(=O)/C=C1\\Nc2sc(C)c(C)c2C(=O)S1", "> 100 µM (inactive)"),
    ("O=C(O)c1cc2c(cc1CC(Cc1ccccc1)C(=O)O)CCC2 (configuration not stated)", "> 100 µM (inactive)"),
    ("CSc1nc2nc(C(O)C(O)C(O)CO)cnc2c(=O)[nH]1 (configuration not stated)", "> 100 µM (inactive)"),
    ("COc1ccc([C@@H]2CC(=O)N2)cc1", "> 100 µM (inactive)"),
    ("C=C1c2[nH]c3ccccc3c2CC(C(=O)O)N1C(O)c1ccc(S(=O)(=O)O)cc1 (configuration not stated)", "> 100 µM (inactive)"),
    ("O=C1C=CC(=NNc2ccccc2)C=CC1=O", "18.9 µM (inactive)"),
    ("O=C1c2ccccc2-c2cc3ccccc3c(=O)n21", "> 100 µM (inactive)"),
    ("CC1OC(O[C@H]2CC[C@]3(C)[C@H]4CC=C5[C@@H]6[C@@H](C)[C@H](C)CC[C@]6(C(=O)OC6OC(CO)C(O)C(O)C6O)CC[C@@]5(C(=O)O)[C@]4(C)CC[C@H]3C2(C)C)C(O)C(O)C1O (some centres not stated)", "> 100 µM (inactive)"),
    ("CC1(C)OC[C@@H](/C=C\\CCO[Si](c2ccccc2)(c2ccccc2)C(C)(C)C)N1C(=O)c1ccccc1", "17.9 µM (inactive)"),
    ("CC(=O)Oc1ccn2nc(C)c(Br)c2c1Br", "49.9 µM (inactive)"),
    ("Cc1cn(Cc2cccc(C3=NCCCN3)c2)c(=O)n(Cc2cccc(C3=NCCCN3)c2)c1=O", "> 100 µM (inactive)"),
    ("COC(=O)[C@@H](NC(=O)[C@H](N)Cc1ccc(N(CCCl)CCCl)cc1)C(C)C", "> 54.1 µM (inactive)"),
    ("CC(C)=Cc1cc(C(=O)NCCNC(=O)c2cc(C=C(C)C)nc(NC#N)n2)nc(NC#N)n1", "> 100 µM (inactive)"),
    ("CS/C(C)=N/OC(=O)NCCCCNc1ccc(N=[N+]=[N-])cc1", "66.4 µM (inactive)"),
    ("Cc1ccc(/N=N/c2ccc(O)c(CN(C)C)c2)cc1", "36.6 µM (inactive)"),
    ("CC1(C)O[C@@H](CBr)C[C@H](C[C@H]2C[C@@H](O)C[C@@H](CCOCc3ccccc3)O2)O1", "25.5 µM (inactive)"),
    ("CC1OC(=O)N(CCCC=C2SCCCS2)C1=O (configuration not stated)", "> 100 µM (inactive)"),
    ("O=C1C=CC(=O)c2c1ccc1c3ccccc3n(Cc3ccccc3)c21", "> 100 µM (inactive)"),
    ("O/N=C(/C(Cl)=C(Cl)Cl)C(Cl)Cl", "31.5 µM (inactive)"),
    ("c1ccc(-c2nc3ccccc3nc2SCc2cccnc2)cc1", "> 100 µM (inactive)"),
    ("Cc1c(C(Cc2ccccc2N(C)C(=O)/C=C\\C(=O)O)c2c[nH]c3ccccc23)c2ccccc2n1C (configuration not stated)", "18 µM (inactive)"),
    ("CC1OC(O)CC(OC(=O)c2ccccc2)C1OC(=O)c1ccccc1 (configuration not stated)", "90.4 µM (inactive)"),
    ("Oc1ccccc1/C=N/Nc1nc(N/N=C/c2ccccc2O)nc(N/N=C/c2ccccc2O)n1", "> 100 µM (inactive)"),
    ("O=C(Nc1ccccc1Br)c1cccc([N+](=O)[O-])c1O", "3.81 µM (inactive)"),
    ("O=[N+]([O-])c1ccc2c(c1)OCCOCCOc1ccc([N+](=O)[O-])cc1OCCOCCO2", "> 100 µM (inactive)"),
    ("CC(C)c1ccc2c(c1)CCC1C(C)(C)[C@@H](O)CC[C@]21C (some centres not stated)", "52.4 µM (inactive)"),
    ("COc1ccc(C(OCC2OC(n3cc(C)c(=O)[nH]c3=O)CC2n2cc(Cn3cc(I)c(=O)[nH]c3=O)nn2)(c2ccccc2)c2ccccc2)cc1 (configuration not stated)", "> 100 µM (inactive)"),
    ("Cc1nc(Nc2ccc([N+](=O)[O-])cc2)sc1C(=O)/C=C/c1ccc(N(C)C)cc1", "> 100 µM (inactive)"),
    ("S=C1SC(=N\\c2ccccc2)/C(=N/c2ccccc2)N1c1ccccc1", "> 100 µM (inactive)"),
    ("Cc1cc(O)nc(CNC(=O)c2cccc3ccccc23)n1", "> 100 µM (inactive)"),
    ("Cc1nc(N)c(N2CCN(C#N)CC2)c(O)n1", "> 100 µM (inactive)"),
    ("NC(=O)c1ccccc1NC(=O)C(=O)C(C(=O)c1ccc2ccccc2c1)C1OC(=O)c2ccccc21 (configuration not stated)", "4.04 µM (inactive)"),
    ("O=c1oc2ccc3ccccc3c2cc1-c1nc2ccccc2o1", "19.7 µM (inactive)"),
    ("CC(=O)OC1=C2CC3(C)OC(=O)CC(C)(C)C3=CC=C2C=C(C(C)C)C1=O (configuration not stated)", "1.83 µM (inactive)"),
    ("COc1ccc2oc(=N)c(C(N)=S)cc2c1", "31.2 µM (inactive)"),
    ("c1ccc(/C(=N/Nc2ccccn2)c2cccnn2)cc1", "10.3 µM (inactive)"),
    ("O=S(=O)(O)CCCC1S(=O)(=O)OCCOS1(=O)=O", "> 100 µM (inactive)"),
    ("COc1cc2nc3c(=C(C#N)C#N)c4ccccc4n3c(=O)c2cc1OC", "> 100 µM (inactive)"),
    ("Clc1nc(Cl)c(Cl)c(-c2ccccc2)n1", "15.6 µM (inactive)"),
    ("NC(=O)N1N=C2c3ccccc3SC[C@H]2[C@@H]1c1ccccc1", "34.5 µM (inactive)"),
]
